The reported numbers originate from patent US4605614A.

Below: a set of entries, each annotated with reported Selectivity TH, absorbance (O.D.) at 645 nm.
# TARGET: UniProt P00735
# Format: biochemical, Cow
# CONDITIONS: TABLE 4, CHA substrates; So = 0.54; pH 8.4; 37° C., 10 minutes; 1.0 NIH/ml
ASSAY_READOUT: Selectivity TH, absorbance (O.D.) at 645 nm

{"COMPOUND": "Cc1ccc(S(=O)(=O)Oc2ccc(C[C@@H](N)C(=O)N[C@@H](Cc3ccccc3)C(=O)N[C@@H](CCCCN)C(=O)Nc3ccc(O)c(C(=O)O)c3)cc2)cc1 [NPC-11, HD-Tyr(Tos)PheLysCHA.2HCl]", "MEASURED_NUMBER": 0.001}
{"COMPOUND": "NCCCC[C@H](NC(=O)[C@H](Cc1ccccc1)NC(=O)[C@H](N)CCCCNC(=O)Cc1ccccc1)C(=O)Nc1ccc(O)c(C(=O)O)c1", "MEASURED_NUMBER": 0}
{"COMPOUND": "CC(C)[C@@H](N)C(=O)N[C@@H](Cc1ccccc1)C(=O)N[C@@H](CCCCN)C(=O)Nc1ccc(O)c(C(=O)O)c1 [NPC-2, HD-ValPheLysCHA.2HCl]", "MEASURED_NUMBER": 0.002}

###

# TARGET: plasmin (pig) (Sus scrofa)
# Sequence (P06867 97-809): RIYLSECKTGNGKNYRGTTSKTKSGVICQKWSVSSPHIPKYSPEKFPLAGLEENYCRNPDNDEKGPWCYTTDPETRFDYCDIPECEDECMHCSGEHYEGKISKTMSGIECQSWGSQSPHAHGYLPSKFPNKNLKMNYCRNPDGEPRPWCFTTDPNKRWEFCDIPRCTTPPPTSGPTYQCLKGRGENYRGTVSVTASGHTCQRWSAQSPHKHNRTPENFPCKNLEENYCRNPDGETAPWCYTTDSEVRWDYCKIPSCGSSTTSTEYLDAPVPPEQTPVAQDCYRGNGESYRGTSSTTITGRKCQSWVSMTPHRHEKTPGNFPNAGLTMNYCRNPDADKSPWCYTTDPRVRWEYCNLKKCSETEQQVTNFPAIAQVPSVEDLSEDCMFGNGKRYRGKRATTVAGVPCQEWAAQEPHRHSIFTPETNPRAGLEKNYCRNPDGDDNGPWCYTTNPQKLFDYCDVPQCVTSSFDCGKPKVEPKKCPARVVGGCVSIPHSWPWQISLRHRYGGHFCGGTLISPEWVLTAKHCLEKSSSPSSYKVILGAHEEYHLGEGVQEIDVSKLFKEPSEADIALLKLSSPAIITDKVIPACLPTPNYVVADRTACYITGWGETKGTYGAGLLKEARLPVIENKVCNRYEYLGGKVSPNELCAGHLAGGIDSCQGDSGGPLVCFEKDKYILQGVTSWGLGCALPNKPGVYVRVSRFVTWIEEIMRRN
# ASSAY: Km, Vmax and Vmax/Km of substrates for plasmin (pig)
# Type: biochemical, Porcine (pig)
# CONDITIONS: TABLE 1; V/Km of each sample divided by that of S2251
Where a SMILES comes first, the peptide text is derived from it.
Each record here notes measured Relative ratio.

{"MOLECULE": "Cc1ccc(CCNC(=O)CC[C@@H](N)C(=O)N[C@@H](Cc2ccccc2)C(=O)N[C@@H](CCCCN)C(=O)Nc2ccc([N+](=O)[O-])cc2)cc1", "Relative ratio": 4.638}
{"MOLECULE": "NCCCC[C@H](NC(=O)[C@H](Cc1ccccc1)NC(=O)[C@H](N)CCC(=O)NCCc1ccccc1)C(=O)Nc1ccc([N+](=O)[O-])cc1 [NPN-4] (HELM PEPTIDE1{[dE].F.K.[O=[N+]([O-])c1ccc(N[*:1])cc1]}|CHEM1{[c1ccc(CCN[*:1])cc1]}$PEPTIDE1,CHEM1,1:R3-1:R1$$$V2.0)", "Relative ratio": 7.481}

###

Form field: Selectivity TH, absorbance (O.D.) at 645 nm (one value per entry).
# TARGET: Thrombin (TH) (Bos taurus)
# Sequence (P00735 44-625): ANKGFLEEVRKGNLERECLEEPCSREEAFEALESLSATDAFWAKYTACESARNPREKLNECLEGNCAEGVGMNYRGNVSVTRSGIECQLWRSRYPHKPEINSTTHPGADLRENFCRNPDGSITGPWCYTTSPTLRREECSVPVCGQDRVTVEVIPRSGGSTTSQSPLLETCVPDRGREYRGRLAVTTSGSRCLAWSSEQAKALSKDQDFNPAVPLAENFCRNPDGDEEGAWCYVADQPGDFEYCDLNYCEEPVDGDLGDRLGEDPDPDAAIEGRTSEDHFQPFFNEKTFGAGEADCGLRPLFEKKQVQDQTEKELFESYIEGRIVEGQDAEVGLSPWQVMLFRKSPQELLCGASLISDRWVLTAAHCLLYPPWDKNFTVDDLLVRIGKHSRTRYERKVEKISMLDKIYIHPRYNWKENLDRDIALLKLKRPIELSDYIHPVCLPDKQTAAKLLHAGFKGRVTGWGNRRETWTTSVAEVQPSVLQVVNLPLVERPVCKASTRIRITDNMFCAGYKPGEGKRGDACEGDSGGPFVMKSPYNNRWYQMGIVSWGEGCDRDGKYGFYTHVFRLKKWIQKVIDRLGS
# Type: biochemical, Cow
# CONDITIONS: TABLE 4, CHA substrates; So = 0.54; pH 8.4; 37° C., 10 minutes; 1.0 NIH/ml
ASSAY_READOUT: Selectivity TH, absorbance (O.D.) at 645 nm

{"COMPOUND": "Cc1ccc(S(=O)(=O)Oc2ccc(C[C@@H](N)C(=O)N[C@@H](CC(C)C)C(=O)N[C@@H](CCCCN)C(=O)Nc3ccc(O)c(C(=O)O)c3)cc2)cc1 [NPC-13, HD-Tyr(Tos)LeuLysCHA.2HCl]", "MEASURED_NUMBER": 0.002}
{"COMPOUND": "NCCCC[C@H](NC(=O)[C@H](Cc1ccccc1)NC(=O)[C@H](N)CCCCNS(=O)(=O)c1ccc2ccccc2c1)C(=O)Nc1ccc(O)c(C(=O)O)c1 [NPC-8, HD-Lys(NaS)PheLysCHA.2HCl]", "MEASURED_NUMBER": 0}
{"COMPOUND": "Cc1ccc(S(=O)(=O)NCCCC[C@H](N)C(=O)N[C@@H](Cc2ccccc2)C(=O)N[C@@H](CCCCN)C(=O)Nc2ccc(O)c(C(=O)O)c2)cc1 [NPC-5, HL-Lys(Tos)PheLysCHA.2HCl]", "MEASURED_NUMBER": 0}
{"COMPOUND": "CCCC(=O)NCCCC[C@@H](N)C(=O)N[C@@H](Cc1ccccc1)C(=O)N[C@@H](CCCCN)C(=O)Nc1ccc(O)c(C(=O)O)c1", "MEASURED_NUMBER": 0.001}
{"COMPOUND": "NCCCC[C@H](NC(=O)[C@H](Cc1ccccc1)NC(=O)[C@H](N)CC(=O)OC1CCCCC1)C(=O)Nc1ccc(O)c(C(=O)O)c1", "MEASURED_NUMBER": 0}

###

# TARGET: UniProtKB P00749
# Assay type: biochemical
# CONDITIONS: TABLE 3, PNA substrates; So = 0.54 mmole/l; pH 8.2; 37° C., 10 minutes; 1000 IU/ml
Where a SMILES comes first, the peptide text is derived from it. [ ]: non-standard residue; d: D form. The star is where a group is joined. pNA = O=[N+]([O-])c1ccc(N*)cc1; Tos = Cc1ccc(S(=O)(=O)*)cc1
Entries and their measured Selectivity UK, absorbance (O.D.) at 405 nm follow.
ASSAY_READOUT: Selectivity UK, absorbance (O.D.) at 405 nm

{"COMPOUND": "Cc1ccc(S(=O)(=O)NCCCC[C@@H](N)C(=O)N[C@@H](Cc2ccccc2)C(=O)N[C@@H](CCCCN)C(=O)Nc2ccc([N+](=O)[O-])cc2)cc1 [NPN-2, H-D-Lys(ToS)-Phe-Lys PNA.2HBr] (H-[dK](Tos)-Phe-Lys-pNA)", "ENDPOINT_UNIT": "O.D.", "MEASURED_NUMBER": 0.001}
{"COMPOUND": "NCCCC[C@H](NC(=O)[C@H](Cc1ccccc1)NC(=O)[C@H](N)CCC(=O)OC1CCCCC1)C(=O)Nc1ccc([N+](=O)[O-])cc1 [NPN-3, HD-Glu(CHN)PheLysPNA.2HBr] (HELM PEPTIDE1{[dE].F.K.[O=[N+]([O-])c1ccc(N[*:1])cc1]}|CHEM1{[C1CCC(O[*:1])CC1]}$PEPTIDE1,CHEM1,1:R3-1:R1$$$V2.0)", "ENDPOINT_UNIT": "O.D.", "MEASURED_NUMBER": 0.001}
{"COMPOUND": "NCCCC[C@H](NC(=O)[C@H](Cc1ccccc1)NC(=O)[C@H](N)CCC(=O)NCCCCc1ccccc1)C(=O)Nc1ccc([N+](=O)[O-])cc1", "ENDPOINT_UNIT": "O.D.", "MEASURED_NUMBER": 0.012}
{"COMPOUND": "NCCCC[C@H](NC(=O)[C@H](Cc1ccccc1)NC(=O)[C@H](N)CCCCNS(=O)(=O)c1ccc2ccccc2c1)C(=O)Nc1ccc([N+](=O)[O-])cc1", "ENDPOINT_UNIT": "O.D.", "MEASURED_NUMBER": 0.001}
{"COMPOUND": "NCCCC[C@H](NC(=O)[C@H](Cc1ccccc1)NC(=O)[C@H](N)CCC(=O)OCCc1ccccc1)C(=O)Nc1ccc([N+](=O)[O-])cc1", "ENDPOINT_UNIT": "O.D.", "MEASURED_NUMBER": 0.003}

###

# TARGET: Factor-Xa (FXa) (Bos taurus)
# Sequence (P00743 41-180): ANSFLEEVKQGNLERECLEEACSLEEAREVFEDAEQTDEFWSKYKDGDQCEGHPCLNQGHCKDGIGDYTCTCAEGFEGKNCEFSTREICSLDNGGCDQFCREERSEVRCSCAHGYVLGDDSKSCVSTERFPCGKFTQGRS
# Sequence (P00743 234-492): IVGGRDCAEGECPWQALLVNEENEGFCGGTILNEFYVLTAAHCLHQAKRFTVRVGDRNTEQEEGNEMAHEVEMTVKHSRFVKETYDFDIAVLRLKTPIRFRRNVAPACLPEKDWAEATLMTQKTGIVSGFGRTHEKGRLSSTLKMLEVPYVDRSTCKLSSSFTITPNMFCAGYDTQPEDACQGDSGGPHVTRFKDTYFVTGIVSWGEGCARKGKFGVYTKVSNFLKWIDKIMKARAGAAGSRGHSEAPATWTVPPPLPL
# Type: biochemical, Cow
# CONDITIONS: TABLE 3, PNA substrates; So = 0.54 mmole/l; pH 8.4; 37° C., 10 minutes; 0.4 U/ml
Where a SMILES comes first, the peptide text is derived from it. [ ]: non-standard residue; d: D form. The star is where a group is joined. pNA = O=[N+]([O-])c1ccc(N*)cc1; Tos = Cc1ccc(S(=O)(=O)*)cc1
Entries and their Selectivity FXa, absorbance (O.D.) at 405 nm values follow.
ASSAY_READOUT: Selectivity FXa, absorbance (O.D.) at 405 nm

{"COMPOUND": "Cc1ccc(S(=O)(=O)NCCCC[C@@H](N)C(=O)N[C@@H](CC(C)C)C(=O)N[C@@H](CCCCN)C(=O)Nc2ccc([N+](=O)[O-])cc2)cc1 [NPN-1, HD-Lys(Tos)LeuLysPNA.2HBr] (H-[dK](Tos)-Leu-Lys-pNA)", "MEASURED_NUMBER": 0.003}
{"COMPOUND": "Cc1ccc(C(=O)NCCCC[C@@H](N)C(=O)N[C@@H](Cc2ccccc2)C(=O)N[C@@H](CCCCN)C(=O)Nc2ccc([N+](=O)[O-])cc2)cc1 [NPN-10]", "MEASURED_NUMBER": 0.006}
{"COMPOUND": "NCCCC[C@H](NC(=O)[C@H](Cc1ccccc1)NC(=O)[C@H](N)CCC(=O)OC1CCCCC1)C(=O)Nc1ccc([N+](=O)[O-])cc1 [NPN-3, HD-Glu(CHN)PheLysPNA.2HBr] (HELM PEPTIDE1{[dE].F.K.[O=[N+]([O-])c1ccc(N[*:1])cc1]}|CHEM1{[C1CCC(O[*:1])CC1]}$PEPTIDE1,CHEM1,1:R3-1:R1$$$V2.0)", "MEASURED_NUMBER": 0.003}
{"COMPOUND": "Cc1ccc(S(=O)(=O)NCCCC[C@@H](N)C(=O)N[C@@H](Cc2ccccc2)C(=O)N[C@@H](CCCCN)C(=O)Nc2ccc([N+](=O)[O-])cc2)cc1 [NPN-2, H-D-Lys(ToS)-Phe-Lys PNA.2HBr] (H-[dK](Tos)-Phe-Lys-pNA)", "MEASURED_NUMBER": 0.003}
{"COMPOUND": "CC(C)C[C@H](NC(=O)[C@H](N)C(C)C)C(=O)N[C@@H](CCCCN)C(=O)Nc1ccc([N+](=O)[O-])cc1 [S-2251, H-D-Val-Leu-Lys-PNA, reference compound] (HELM PEPTIDE1{[dV].L.K.[O=[N+]([O-])c1ccc(N[*:1])cc1]}$$$$V2.0)", "MEASURED_NUMBER": 0.007}
{"COMPOUND": "Cc1ccc(CCNC(=O)CC[C@@H](N)C(=O)N[C@@H](Cc2ccccc2)C(=O)N[C@@H](CCCCN)C(=O)Nc2ccc([N+](=O)[O-])cc2)cc1 [NPN-7]", "MEASURED_NUMBER": 0.008}
{"COMPOUND": "NCCCC[C@H](NC(=O)[C@H](Cc1ccccc1)NC(=O)[C@H](N)CCC(=O)NCCc1ccccc1)C(=O)Nc1ccc([N+](=O)[O-])cc1 [NPN-4] (HELM PEPTIDE1{[dE].F.K.[O=[N+]([O-])c1ccc(N[*:1])cc1]}|CHEM1{[c1ccc(CCN[*:1])cc1]}$PEPTIDE1,CHEM1,1:R3-1:R1$$$V2.0)", "MEASURED_NUMBER": 0.006}
{"COMPOUND": "Cc1ccc(S(=O)(=O)NCC(=O)N2CCC[C@H]2C(=O)N[C@@H](CCCCN)C(=O)Nc2ccc([N+](=O)[O-])cc2)cc1 [CHR-PL, Tos-Gly-Pro-Lys-PNA, reference compound] (HELM PEPTIDE1{[Cc1ccc(S(=O)(=O)[*:2])cc1].G.P.K.[O=[N+]([O-])c1ccc(N[*:1])cc1]}$$$$V2.0)", "MEASURED_NUMBER": 0.026}
